TEST: Test 4: metabolic stability test in human hepatic microsome
Type: in vitro ADME
RECORDED CONDITIONS: 0.1 mg/mL microsome, 0.1 μmol/L compound, 37° C., 30 minutes
ENDPOINT LABEL: Metabolic stability in human hepatic microsome

Here is how some molecules turned out for Metabolic stability in human hepatic microsome.
1) O=C1c2c(Br)n[nH]c2CCN1CCN1CCC(c2noc3ccccc23)CC1    <0.05 mL/min/mg protein
2) Cc1nc2c(o1)C(=O)N(CCN1CCC(c3noc4ccccc34)CC1)CCC2    <0.05 mL/min/mg protein
3) Cc1ccc2c(n1)C(=O)N(CCN1CCC(c3noc4ccccc34)CC1)CC2 [Example 184]    <0.05 mL/min/mg protein
4) Cn1ccc2c1CCCN(CCN1CCN(c3noc4ccccc34)CC1)C2=O    <0.01 mL/min/mg protein
5) CC(CN1CCC(c2noc3cc(F)ccc23)CC1)N1CCc2cccnc2C1=O (centres unmarked)    <0.05 mL/min/mg protein
6) O=C1c2cccnc2CCN1CCN1CCC(c2noc3ccccc23)CC1    <0.05 mL/min/mg protein

Request: Identify the reported Metabolic stability in human hepatic microsome for the following entry. COc1ncc2c(n1)CCN(CCN1CCC(c3noc4ccccc34)CC1)C2=O
Response: <0.05 mL/min/mg protein

Request: Look up and state reported Metabolic stability in human hepatic microsome for Cn1cnc2c1CCN(CCN1CCC(c3noc4ccccc34)CC1)C2=O
Response: <0.01 mL/min/mg protein

Request: Quote Metabolic stability in human hepatic microsome reported for Cc1ncc2c(n1)CCC(CCN1CCC(c3noc4ccccc34)CC1)C2=O (centres unmarked) please.
Response: <0.05 mL/min/mg protein

Request: Tell me its Metabolic stability in human hepatic microsome given Cc1cncc2c1CCN(CCN1CCN(c3noc4ccccc34)CC1)C2=O as the entry.
Response: <0.05 mL/min/mg protein

Request: Kindly indicate its recorded Metabolic stability in human hepatic microsome. Item: Cc1nc2c(o1)C(=O)N(CCN1CCC(c3noc4ccccc34)CC1)CC2
Response: <0.01 mL/min/mg protein

* * *

The following compounds are listed with their measured pKi values.
TARGET: UniProt P28223
Sequence (P28223 whole entry): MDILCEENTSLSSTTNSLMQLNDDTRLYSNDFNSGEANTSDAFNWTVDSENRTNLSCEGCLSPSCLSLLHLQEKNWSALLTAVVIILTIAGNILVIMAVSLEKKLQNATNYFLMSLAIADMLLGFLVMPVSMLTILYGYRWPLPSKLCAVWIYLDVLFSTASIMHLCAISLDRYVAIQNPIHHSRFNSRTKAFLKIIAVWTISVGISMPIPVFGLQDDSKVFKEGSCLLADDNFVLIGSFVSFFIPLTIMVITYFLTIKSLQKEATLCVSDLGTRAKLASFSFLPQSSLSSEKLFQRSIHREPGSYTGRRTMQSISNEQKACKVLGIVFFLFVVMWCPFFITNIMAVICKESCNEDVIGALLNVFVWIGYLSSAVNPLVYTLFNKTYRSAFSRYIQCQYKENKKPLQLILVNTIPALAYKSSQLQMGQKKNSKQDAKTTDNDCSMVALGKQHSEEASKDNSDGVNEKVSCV
pKi is a log-scale quantity: -log10 of the concentration expressed in molar.

# example entries with known answers
1) CCc1nc2c(o1)C(=O)N(CCN1CCC(c3noc4ccccc34)CC1)CC2    8.11
2) O=C1c2nc(Cl)ccc2CCN1CCN1CCC(c2noc3ccccc23)CC1    7.97
3) Cn1ccc2c1CCCN(CCN1CCC(c3noc4ccccc34)C1)C2=O (centres unmarked)    7.86

Request: Quote pKi reported for Cn1ncc2c1C(=O)N(CCN1CCC(c3noc4ccccc34)CC1)CC2 please.
Response: 8.14

Request: Give pKi for Cc1nc2c(o1)CCCN(CCN1CCC(c3noc4ccccc34)CC1)C2=O
Response: 7.84

* * *

# maps each entry to its IC50
TARGET: UniProt:P28223
TEST: Test 3: antagonist activity for human 5-HT2A receptor (aequorin luminescence, CHO-K1 cells)
Assay type: cell-based
RECORDED CONDITIONS: aequorin luminescence, CHO-K1 cells, 1 nmol/L 5-HT
Give just the numeric value; nM need not be written.

Check out these entries, answers already filled in.
1) Cn1ccc2c1CCCN(CCN1CCN(c3nsc4ccccc34)CC1)C2=O    15.4
2) O=C1c2ncccc2CCN1CCN1CCC(c2noc3c(F)cccc23)CC1    373
3) Cc1ncc2c(=O)n(CCN3CCN(c4noc5ccccc45)CC3)ccc2n1    143
4) Cn1cc2c(n1)CCN(CCN1CCC(c3noc4ccccc34)C1)C2=O (stereo not drawn)    723
5) O=c1c2cnccc2ccn1CCN1CCN(c2noc3ccccc23)CC1    49.7
6) Cc1c2c(nn1C)CCN(CCN1CCN(c3noc4ccccc34)CC1)C2=O    45.9

Request: Provide IC50, system UniProt:P28223, entry O=C1c2ncccc2CCN1CCN1CCC(c2noc3cccc(F)c23)CC1
Response: 976

Request: Enter IC50 (test system UniProt:P28223) for COc1ccc2onc(C3CCN(CCN4CCc5cccnc5C4=O)CC3)c2c1
Response: 3910

Request: Fill in IC50 for Cc1ccc2c(n1)C(=O)N(CCN1CCC(c3noc4ccccc34)CC1)CC2 tested with UniProt:P28223.
Response: 95.5

* * *

TARGET: human 5-HT1A receptor (Homo sapiens (Human), UniProt P08908)
Sequence (P08908 whole entry): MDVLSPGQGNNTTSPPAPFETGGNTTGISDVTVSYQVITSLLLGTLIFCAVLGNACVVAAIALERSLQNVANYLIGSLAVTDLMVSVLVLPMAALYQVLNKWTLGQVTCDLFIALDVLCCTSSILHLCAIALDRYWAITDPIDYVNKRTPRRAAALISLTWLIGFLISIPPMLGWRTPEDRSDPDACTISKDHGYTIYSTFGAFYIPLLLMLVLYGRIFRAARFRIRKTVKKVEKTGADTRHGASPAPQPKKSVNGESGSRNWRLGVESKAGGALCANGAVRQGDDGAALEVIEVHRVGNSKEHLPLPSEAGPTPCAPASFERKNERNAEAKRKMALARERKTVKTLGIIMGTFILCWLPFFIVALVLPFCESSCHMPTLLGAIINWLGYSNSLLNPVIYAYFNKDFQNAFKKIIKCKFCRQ
TEST: Test 2: agonist activity for human 5-HT1A receptor ([35S]GTPγS binding)
RECORDED CONDITIONS: [35S]GTPγS binding; concentration at which half the activity of Emax was obtained
pEC50: −log10 of the molar value.
ENDPOINT LABEL: pEC50

Examples with answers:
1) Cn1cnc2c1C(=O)N(CCN1CCC(c3noc4ccccc34)CC1)CCC2 [Example 134]    6.66
2) Cn1nc2c(c1C(F)(F)F)C(=O)N(CCN1CCN(c3nsc4ccccc34)CC1)CC2 [Example 78]    9.11
3) Cc1ncc2c(=O)n(CCN3CCN(c4nsc5ccccc45)CC3)ccc2n1 [Example 95]    7.11
4) Cc1ccc2c(C3CCN(CCN4CCc5cccnc5C4=O)CC3)noc2c1 [Example 118]    6.26
5) O=C1c2cn[nH]c2CCCN1CCN1CCC(c2noc3ccccc23)CC1 [Example 97]    6.35

1. O=C1c2[nH]ncc2CCN1CCN1CCC(c2noc3ccccc23)CC1 [Example 98]
2. Cc1noc2ccn(CCN3CCC(c4noc5ccccc45)CC3)c(=O)c12 [Example 132]
Request: Of 1 and 2 , which one carries the higher reported pEC50? Indicate your choice by writing its label.
Response: 2

A. Cn1cc2c(n1)CCCN(CCN1CCN(c3nsc4ccccc34)CC1)C2=O [Example 42]
B. O=C1c2cn(-c3ccccc3)nc2CCN1CCN1CCN(c2nsc3ccccc23)CC1 [Example 168]
Request: Looking at recorded values for pEC50, does A or B come in lower? Please respond with the label that marks your chosen entry.
Response: B

I. O=C1c2cnc(C3CC3)nc2CCN1CCN1CCN(c2nsc3ccccc23)CC1 [Example 94]
II. Cn1cc2c(n1)C(=O)N(CCN1CCN(c3nsc4ccccc34)CC1)CC2 [Example 50]
Request: Lower value of pEC50 belongs to which: I or II ? Pick one; state its label.
Response: I

* * *

TARGET: human D2 receptor (Homo sapiens (Human), UniProt P14416)
Sequence (P14416 whole entry): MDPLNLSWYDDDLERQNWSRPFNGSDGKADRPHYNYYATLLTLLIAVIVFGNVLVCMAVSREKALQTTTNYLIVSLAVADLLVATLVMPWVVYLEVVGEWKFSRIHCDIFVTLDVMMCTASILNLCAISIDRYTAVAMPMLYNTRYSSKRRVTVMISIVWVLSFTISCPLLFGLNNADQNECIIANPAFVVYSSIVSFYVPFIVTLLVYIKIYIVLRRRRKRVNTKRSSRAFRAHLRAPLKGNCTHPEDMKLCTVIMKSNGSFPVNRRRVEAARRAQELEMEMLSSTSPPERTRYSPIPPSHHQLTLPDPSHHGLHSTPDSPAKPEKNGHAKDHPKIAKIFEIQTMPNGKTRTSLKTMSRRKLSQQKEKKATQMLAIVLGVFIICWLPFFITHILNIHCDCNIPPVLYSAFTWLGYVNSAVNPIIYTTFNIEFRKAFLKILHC
TEST: Test 1: binding activity for human D2 receptor ([3H]Spiperone, CHO cell membrane fraction)
RECORDED CONDITIONS: human D2 receptor, [3H]Spiperone
ENDPOINT LABEL: Ki (nM)

Consider the reported Ki for these compounds:
1) Cn1nc2c(c1C(F)(F)F)C(=O)N(CCN1CCN(c3nsc4ccccc34)CC1)CC2 [Example 78]    343
2) O=c1c2ncccc2ccn1CCN1CCC(c2noc3cc(F)ccc23)CC1 [Example 12]    311
3) CCc1ncc2c(n1)CCN(CCN1CCN(c3nsc4ccccc34)CC1)C2=O [Example 93]    826
4) COc1cc2c(cn1)C(=O)N(CCN1CCC(c3noc4ccccc34)CC1)CC2 [Example 14]    136

I. Cn1ncc2c1CCN(CCN1CCC(c3noc4ccccc34)CC1)C2=O [Example 130]
II. Cn1ccc2c1CCN(CCN1CCC(c3noc4ccccc34)CC1)C2=O [Example 60]
Request: Pick one, I or II : lowest reported Ki. Write down the label of the entry you select.
Response: II
(II: 260 nM, I: 541 nM)

I. Cc1ncc2c(=O)n(CCN3CCN(c4nsc5ccccc45)CC3)ccc2n1 [Example 95]
II. Cc1cc2c(cn1)C(=O)N(CCN1CCC(c3noc4ccccc34)CC1)CC2 [Example 135]
Request: Of I and II , whose reported Ki is numerically smaller? Your answer should be the label attached to the chosen record.
Response: II
(II: 62 nM, I: 2580 nM)

a. O=c1c2cnc(C(F)(F)F)cc2ccn1CCN1CCC(c2noc3ccccc23)CC1 [Example 84]
b. CC(C)n1ncc2c1CCN(CCN1CCN(c3nsc4ccccc34)CC1)C2=O [Example 158]
c. Cc1nccc2c1C(=O)N(CCN1CCC(c3noc4ccccc34)CC1)CC2 [Example 87]
Request: Put these in order: smallest Ki first, largest last. Provide your answer as the labels ordered per the instruction.
Response: c, b, a

* * *

TARGET: human 5-HT1A receptor (Homo sapiens (Human), UniProt P08908)
TEST: Test 2: agonist activity for human 5-HT1A receptor ([35S]GTPγS binding)
RECORDED CONDITIONS: [35S]GTPγS binding; concentration at which half the activity of Emax was obtained
ENDPOINT LABEL: EC50 (nM)

1) Cc1cc2c(cn1)C(=O)N(CCN1CCN(c3noc4ccccc34)CC1)CC2(C)C    16
2) COc1cc2c(cn1)C(=O)N(CCN1CCN(c3noc4ccccc34)CC1)CC2    4.72
3) Cc1noc2c1C(=O)N(CCN1CCN(c3noc4ccccc34)CC1)CC2    644
4) CCc1nc2c(o1)C(=O)N(CCN1CCN(c3nsc4ccccc34)CC1)CC2    7.34
5) Cc1nn(C)c2c1C(=O)N(CCN1CCN(c3nsc4ccccc34)CC1)CC2    14

P. Cc1nc(C)c2c(=O)n(CCN3CCC(c4noc5ccccc45)CC3)ccc2n1
Q. CCc1ncc2c(n1)CCN(CCN1CCN(c3nsc4ccccc34)CC1)C2=O
Request: Pick one: P or Q . Which one has the lower reported EC50? Kindly give the label for the entry you pick.
Response: Q
